This listing pairs molecules with measured IC50.
Target: TBK1 (Homo sapiens, UniProt Q9UHD2)
Sequence (Q9UHD2 whole entry, species assumed): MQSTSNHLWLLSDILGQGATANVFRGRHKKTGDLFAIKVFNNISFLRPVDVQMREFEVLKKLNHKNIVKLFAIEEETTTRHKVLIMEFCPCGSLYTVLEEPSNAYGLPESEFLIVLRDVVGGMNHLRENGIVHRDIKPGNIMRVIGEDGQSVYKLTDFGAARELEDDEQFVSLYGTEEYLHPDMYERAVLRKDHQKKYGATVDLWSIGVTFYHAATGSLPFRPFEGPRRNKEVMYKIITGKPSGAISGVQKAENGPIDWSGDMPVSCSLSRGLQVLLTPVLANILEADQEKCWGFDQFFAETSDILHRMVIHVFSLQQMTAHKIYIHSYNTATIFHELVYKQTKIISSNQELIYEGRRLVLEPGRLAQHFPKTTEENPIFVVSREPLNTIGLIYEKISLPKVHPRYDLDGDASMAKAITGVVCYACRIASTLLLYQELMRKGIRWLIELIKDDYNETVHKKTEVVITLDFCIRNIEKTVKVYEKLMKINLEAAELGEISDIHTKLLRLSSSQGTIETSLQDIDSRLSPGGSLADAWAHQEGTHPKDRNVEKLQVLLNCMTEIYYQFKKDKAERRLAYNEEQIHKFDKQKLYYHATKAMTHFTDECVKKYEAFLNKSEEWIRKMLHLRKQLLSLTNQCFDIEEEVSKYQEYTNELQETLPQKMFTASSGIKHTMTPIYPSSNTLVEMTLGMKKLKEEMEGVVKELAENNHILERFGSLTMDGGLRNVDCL
Assay: TBK Biochemical Assay
Settings: read-out: TBK1 IC50

These solved cases illustrate the format of a correct answer.
COc1cc(C(=O)N(C)C)cnc1-c1cc2nccc(-c3ccc(NC4CCNC4)c(C#N)c3)c2o1 (stereo not drawn) [Compound 432] | < 100 nM
N#Cc1cc(-c2ccnc3cc(-c4ccc(C(=O)O)cc4)oc23)ccc1Oc1cccc(F)c1 [Compound 188] | 1000 to 5000 nM
CN(C)C(=O)c1ccc(-c2cc3nccc(-c4ccc(N5CC[C@H](F)C5)c(C#N)c4)c3o2)cc1 [Compound 106] | < 100 nM
CN(C)C(=O)c1cccc(-c2cc3nccc(-c4ccc(OC5CCOCC5)c(C#N)c4)c3o2)c1 [Compound 123] | < 100 nM
COc1cc(C(=O)N[C@@H]2CN3CCC2CC3)ncc1-c1cc2nccc(-c3ccc(N4CC[C@@H](F)C4)c(C#N)c3)c2o1 [Compound 445] | < 100 nM

[Q] Fill in the blank: the reported IC50 of COc1cc(C(=O)NC2C3COCC32)cnc1-c1cc2nccc(-c3ccc(N4CC[C@H](F)C4)c(C#N)c3)c2o1 (stereo in doubt) [Compound 465] is ____.
[A] < 100 nM
